System: soybean plantlets
test-protocol: High-throughput soybean screening for herbicide tolerance (plantlets)
Type: in vivo, soybean (A3555)
Set-up: key: 0 for poor tolerance, high damage, low green coloration; 1 for some tolerance, average damage, moderate green coloration; 2 for good tolerance, low damage, high green coloration
condition-description: TP18; S-3100 spray five weeks post-transformation, scored day four
Quick reference: coloration score of the listed items.
endpoint-name: coloration score

molecule	experimental-value
H_N90: microbial HemG protoporphyrinogen oxidase, SEQ ID NO:1 (SEQ ID NO:11 lacking start methionine; variants 18, 19) (protein, listed as Enterobacter cloacae) MKALVLYSTRDGQTHAIASYIASCMKEKAECDVIDLTHGEHVNLTQYDQVLIGASIRYGHFNAVLDKFIKRNVDQLNNMPSAFFCVNLTARKPEKRTPQTNPYVRKFLLATPWQPALCGVFAGALRYPRYRWIDKVMIQLIMRMTGGETDTSKEVEYTDWEQVKKFAEDFAKLSYKKAL	2
H_N20: microbial HemG protoporphyrinogen oxidase, SEQ ID NO:2 (SEQ ID NO:12 lacking start methionine) (protein, listed as Pantoea ananatis) MKALILFSTRDGQTQKIASAIADEIKGQQSCDVINIQDAKTLDWQQYDRVLIGASIRYGHFQPVVNEFVKHNLLALQQRVSGFFSVNLTARKPEKRSPETNAYTVKFLAQSPWQPDCCAVFAGALYYPRYRWFDRVMIQFIMRMTGGETDASKEVEYTDWQQVQRFARDFAQLPGKSY	1

The origin of these recorded values is patent US12123009B2.
